System: PC-3
Assay: SRB anti-cancer assay, Prostate Cancer
Format: cell-based, human
Details: PC-3 (Prostate Cancer), 48 h; read-out: LC50 (the source's name)
MEASUREMENT_LABEL: CC50

CC50 measured on N=c1nc(N)c2ncn([C@@H]3O[C@H](CO)[C@@H](O)[C@H]3O)c2c(N)n1 [Compound 14-2] = > 100 µM

----------
// values below are reported CC50
System: NCI-H460
Assay type: cell-based, human
Details: NCI-H460 (Non-Small Cell Lung Cancer), 48 h; read-out: LC50 (the source's name)

- STRUCTURE_STRING: "N=c1nc(N)c2ncn([C@@H]3O[C@H](COC(=O)c4ccccc4)[C@@H](OC(=O)c4ccccc4)[C@H]3OC(=O)c3ccccc3)c2c(N)n1"
  CC50: "34.7 µM"

Summary line: N=c1[nH]c(=O)c2ncn([C@@H]3O[C@H](CO)[C@@H](O)[C@H]3O)c2c(=O)[nH]1 , NCI-H460, reported CC50 = > 100 µM

Bench note, NCI-H460: entry N=c1nc(N)c2ncn([C@@H]3O[C@H](CO)[C@@H](O)[C@H]3O)c2c(N)n1 , its CC50 = 64.1 µM

Entry source: patent US6677310B1
